Test system: Streptococcus pyogenes C203
assay.summary: protection of mice experimentally infected with S. pyogenes C203
Format: in vivo
experimental.parameters: C203, sc, Subcutaneous, mg/kg × 2, doses given 1 and 4 hours postinfection
readout.label: ED50

INSERT INTO measurements (compound, readout_label, reported_value) VALUES
  ('CCC1OC(=O)CC(O)C(C)C(OC2OC(C)C(O)C(N(C)C)C2O)C(CCN2CCCCCC2)CC(C)C(=O)C=CC(C)=CC1CO (stereo not drawn)', 'ED50', '7.8 mg/kg'),
  ('CCC1OC(=O)CC(O)C(C)C(OC2OC(C)C(O)C(N(C)C)C2O)C(CCN2CCCCCCC2)CC(C)C(=O)C=CC(C)=CC1CN1CCCCCCC1 (stereo not drawn)', 'ED50', '> 10 mg/kg');

Complete the entry with ED50 for CCC1OC(=O)CC(O)C(C)C(OC2OC(C)C(O)C(N(C)C)C2O)C(CCN2CCOCC2)CC(C)C(=O)C=CC(C)=CC1CO (stereo not drawn)
> 10 mg/kg

---

Test system: Haemophilus influenzae 76
assay.summary: MIC, standard agar-dilution assay, Haemophilus influenzae 76
Assay type: cell-based
experimental.parameters: Haemophilus influenzae 76; Ampicillin-resistant strain; read-out: MIC
readout.label: MIC (µg/mL)
Expressed in µg/mL, but write only the number.

Examples from the recorded data:
INSERT INTO measurements (compound, measurement_units, reported_value) VALUES
  ('CCC1OC(=O)CC(O)C(C)C(OC2OC(C)C(O)C(N(C)C)C2O)C(CCN2CC3CCC(CC3)C2)CC(C)C(=O)C=CC(C)=CC1CO (stereo not shown) [Compound 13]', 'µg/mL', 2),
  ('CCC1OC(=O)CC(O)C(C)C(OC2OC(C)C(O)C(N(C)C)C2O)C(CCN2CCCCCCC2)CC(C)C(=O)C=CC(C)=CC1CN1CCCCCCC1 (stereo not shown) [Compound 15]', 'µg/mL', 1),
  ('CCC1OC(=O)CC(O)C(C)C(OC2OC(C)C(O)C(N(C)C)C2O)C(CCN2CCCCCC2)CC(C)C(=O)C=CC(C)=CC1C (stereo not shown) [Compound 23]', 'µg/mL', 16);

Please turn your attention to the following entry.
Complete the entry with MIC for CCC1OC(=O)CC(O)C(C)C(OC2OC(C)C(O)C(N(C)C)C2O)C(CCN2CCOCC2)CC(C)C(=O)C=CC(C)=CC1CO (stereo not shown) [Compound 14, 20-DH-DO-20-Morpholino-OMT]
4

---

assay.summary: physchem
experimental.parameters: Titration pKa value (first)
readout.label: pKa
The answer should be a number; do not append a unit.

Complete the entry with pKa for CCC1OC(=O)CC(O)C(C)C(OC2OC(C)C(O)C(N(C)C)C2O)C(CCN2CC3CCC(CC3)C2)CC(C)C(=O)C=CC(C)=CC1CO (stereo not shown)
7.7

---

# ED50 per record follows
Test system: Streptococcus pyogenes C203
assay.summary: protection of mice experimentally infected with S. pyogenes C203
Assay type: in vivo
experimental.parameters: C203, Oral, mg/kg × 2, doses given 1 and 4 hours postinfection

Examples from the recorded data:
INSERT INTO measurements (compound, reported_value) VALUES
  ('CCC1OC(=O)CC(O)C(C)C(OC2OC(C)C(O)C(N(C)C)C2O)C(CCN2CCCCCCC2)CC(C)C(=O)C=CC(C)=CC1CN1CCCCCCC1 (stereo not drawn) [Compound 15]', '> 50 mg/kg'),
  ('CCC1OC(=O)CC(O)C(C)C(OC2OC(C)C(O)C(N(C)C)C2O)C(CCN2CCOCC2)CC(C)C(=O)C=CC(C)=CC1CO (stereo not drawn) [Compound 14, 20-DH-DO-20-Morpholino-OMT]', '> 100 mg/kg'),
  ('CCC1OC(=O)CC(O)C(C)C(OC2OC(C)C(O)C(N(C)C)C2O)C(CCN2CC3CCC(CC3)C2)CC(C)C(=O)C=CC(C)=CC1CO (stereo not drawn) [Compound 13]', '87 mg/kg'),
  ('CCC1OC(=O)CC(O)C(C)C(OC2OC(C)C(O)C(N(C)C)C2O)C(CCN2CCCCCC2)CC(C)C(=O)C=CC(C)=CC1C (stereo not drawn) [Compound 23]', '> 100 mg/kg'),
  ('CCC1OC(=O)CC(O)C(C)C(OC2OC(C)C(O)C(N(C)C)C2O)C(CCN2CCCCCC2)CC(C)C(=O)C=CC(C)=CC1CO (stereo not drawn) [Compound 5]', '> 100 mg/kg');

Please turn your attention to the following entry.
Complete the entry with ED50 for CCC1OC(=O)CC(O)C(C)C(OC2OC(C)C(O)C(N(C)C)C2O)C(CCN2CCC(c3ccccc3)CC2)CC(C)C(=O)C=CC(C)=CC1CO (stereo not drawn) [Compound 4, 20-DH-DO-20-(4-Phenylpiperidin-1-yl)-OMT]
> 100 mg/kg

---

assay.summary: physchem
experimental.parameters: Titration pKa value (second)
readout.label: pKa
The answer should be a number; do not append a unit.

Complete the entry with pKa for CCC1OC(=O)CC(O)C(C)C(OC2OC(C)C(O)C(N(C)C)C2O)C(CCN2CC3CCC(CC3)C2)CC(C)C(=O)C=CC(C)=CC1CO (stereo not shown) [Compound 13]
9.3

---

Test system: Staphylococcus aureus X400
assay.summary: MIC, standard agar-dilution assay, Staphylococcus aureus X400
Format: cell-based
experimental.parameters: Staphylococcus aureus X400; Methicillin-resistant strain; read-out: MIC
Procedure: Certain of the derivatives are active against some gram-negative bacteria, such as Pasteurella species. The MIC's in Table II were determined by standard agar-dilution assays.
readout.label: MIC (µg/mL)
Expressed in µg/mL, but write only the number.

Examples from the recorded data:
INSERT INTO measurements (molecule, tested_target, measurement_units, reported_value) VALUES
  ('CCC1OC(=O)CC(O)C(C)C(OC2OC(C)C(O)C(N(C)C)C2O)C(CCN2CC3CCC(CC3)C2)CC(C)C(=O)C=CC(C)=CC1CO (stereo not shown)', 'Staphylococcus aureus X400', 'µg/mL', 1),
  ('CCC1OC(=O)CC(O)C(C)C(OC2OC(C)C(O)C(N(C)C)C2O)C(CCN2CCCCCC2)CC(C)C(=O)C=CC(C)=CC1CO (stereo not shown)', 'Staphylococcus aureus X400', 'µg/mL', 8);

Complete the entry with MIC for CCC1OC(=O)CC(O)C(C)C(OC2OC(C)C(O)C(N(C)C)C2O)C(CCN2CCCCCC2)CC(C)C(=O)C=CC(C)=CC1C (stereo not shown)
8

Complete the entry with MIC for CCC1OC(=O)CC(O)C(C)C(OC2OC(C)C(O)C(N(C)C)C2O)C(CCN2CCOCC2)CC(C)C(=O)C=CC(C)=CC1CO (stereo not shown)
8

---

# pKa per record follows
assay.summary: Titration pKa
experimental.parameters: Titration pKa value (first)
The answer should be a number; do not append a unit.

Complete the entry with pKa for CCC1OC(=O)CC(O)C(C)C(OC2OC(C)C(O)C(N(C)C)C2O)C(CCN2CCCCCCC2)CC(C)C(=O)C=CC(C)=CC1CN1CCCCCCC1 (centres unmarked)
6.9

Complete the entry with pKa for CCC1OC(=O)CC(O)C(C)C(OC2OC(C)C(O)C(N(C)C)C2O)C(CCN2CCOCC2)CC(C)C(=O)C=CC(C)=CC1CO (centres unmarked)
6.5

---

System: Streptococcus pyogenes C203
assay.summary: protection of mice experimentally infected with S. pyogenes C203
Type: in vivo
experimental.parameters: C203, sc, Subcutaneous, mg/kg × 2, doses given 1 and 4 hours postinfection
# ED50 per record follows

INSERT INTO measurements (compound, readout_label, reported_value) VALUES
  ('CCC1OC(=O)CC(O)C(C)C(OC2OC(C)C(O)C(N(C)C)C2O)C(CCN2CCCCCC2)CC(C)C(=O)C=CC(C)=CC1C (stereo not drawn)', 'ED50', '> 10 mg/kg'),
  ('CCC1OC(=O)CC(O)C(C)C(OC2OC(C)C(O)C(N(C)C)C2O)C(CCN2CC3CCC(CC3)C2)CC(C)C(=O)C=CC(C)=CC1CO (stereo not drawn)', 'ED50', '5.9 mg/kg');

Please turn your attention to the following entry.
Complete the entry with ED50 for CCC1OC(=O)CC(O)C(C)C(OC2OC(C)C(O)C(N(C)C)C2O)C(CCN2CCC(c3ccccc3)CC2)CC(C)C(=O)C=CC(C)=CC1CO (stereo not drawn)
> 10 mg/kg

---

assay.summary: Titration pKa
experimental.parameters: Titration pKa value (second)
readout.label: pKa
The answer should be a number; do not append a unit.

INSERT INTO results (compound, reported_value) VALUES
  ('CCC1OC(=O)CC(O)C(C)C(OC2OC(C)C(O)C(N(C)C)C2O)C(CCN2CCOCC2)CC(C)C(=O)C=CC(C)=CC1CO (centres unmarked)', 8.4);

Please turn your attention to the following entry.
Complete the entry with pKa for CCC1OC(=O)CC(O)C(C)C(OC2OC(C)C(O)C(N(C)C)C2O)C(CCN2CCCCCCC2)CC(C)C(=O)C=CC(C)=CC1CN1CCCCCCC1 (centres unmarked)
8.05
